SYSTEM NAME: T1, recombinant MS4A4A soluble polypeptide JS5
T1 construct: also called JS5.His
ASSAY: ELISA, 1 ug/ml antibody
Recorded ELISA OD, one value per entry.
A bare number is all that is needed in reply.

1) anti-MS4A4A antibody 4A-381 (antibody, V domains shown) VH: QVQLVQSGSELKKPGASVKVSCKASGYIFTSYGLSWVRQAPGQGLEWMGWINTYSGVPTYAQGFTGRFVFSLDTSVSTAYLQISSLKAEDTAVYYCARSMADYWGQGTLVTVSS VL: DVVMTQSPLSLPVTLGQPASISCKSSRSLLYSQGKTYLSWFQQRPGQSPRRLIYLVSKLDSGVPDRFSGSGSGTDFTLKISRVEAEDVGVYYCWQGIDFHQTFGGGTKVEIK = 1

Next item in the queue.
Ask | Provide measured ELISA OD value, entry: anti-MS4A4A antibody 4A-379 (antibody, V domains shown) VH: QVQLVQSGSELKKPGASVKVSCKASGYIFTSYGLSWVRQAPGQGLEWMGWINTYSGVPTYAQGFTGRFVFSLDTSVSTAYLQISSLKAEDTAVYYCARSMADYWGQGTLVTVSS VL: DVVMTQSPLSLPVTLGQPASISCKSSRSLLYSAGKTYLSWFQQRPGQSPRRLIYLVSKLDSGVPDRFSGSGSGTDFTLKISRVEAEDVGVYYCWQGIDFHQTFGGGTKVEIK
Reply | 0.893
